Provenance of the data: patent US12618050B2

Assay: Protein expression levels of GDH variants
Parameters: species or system Escherichia coli
Conditions: expressed in E. coli
Experimental: Proteins were purified as 6×His tag fusion at the N-terminus. E. coli BL21 (DE3) with plasmids were inoculated into LB medium with 200 mg L^−1 ampicillin. Cells were induced with 0.5 mM IPTG and expressed for 24 hours at 30° C. with shaking at 250 rpm. […] The purified proteins were quantified by Bradford assay.
Assay Endpoint: Expression level

| Molecule | Expression level |
| --- | --- |
| M143S (protein) MYPDLKGKVVAITGAASGLGKAMAIRFGKEQAKVVINYYSNKQDPNEVKEEVIKAGGEAVVVQGDVTKEEDVKNIVQTAIKEFGTLDIMINNAGLENPVPSHEMPLKDWDKVIGTNLTGAFLGSREAIKYFVENDIKGNVINSSSVHEVIPWPLFVHYAASKGGIKLMTETLALEYAPKGIRVNNIGPGAINTPINAEKFADPKQKADVESMIPMGYIGEPEEIAAVAAWLASKEASYVTGITLFADGGMTQYPSFQAGRG | 40.60 μg protein/ml culture |

INPUT: For the molecule I195R-A93K-Y39Q: Bs GDH with I195R, A93K, Y39Q substitutions (SEQ ID NO:6) (protein, I195R A93K Y39Q mutant GDH coding sequence) MYPDLKGKVVAITGAASGLGKAMAIRFGKEQAKVVINYQSNKQDPNEVKEEVIKAGGEAVVVQGDVTKEEDVKNIVQTAIKEFGTLDIMINNKGLENPVPSHEMPLKDWDKVIGTNLTGAFLGSREAIKYFVENDIKGNVINMSSVHEVIPWPLFVHYAASKGGIKLMTETLALEYAPKGIRVNNIGPGAINTPRNAEKFADPKQKADVESMIPMGYIGEPEEIAAVAAWLASKEASYVTGITLFADGGMTQYPSFQAGRG , report Expression level.
OUTPUT: 25.37 μg protein/ml culture
